# test.target: pooled human IgG
measure.name: Enzyme Activity Endpoint Assay (purified): Fab'2 (ng/µL)
Just the number please, in ng/µL, no unit attached.

Problem: What value of Enzyme Activity Endpoint Assay (purified): Fab'2 has been recorded for this entry: PRT-241 (protein) MVTSVWTKGVTPPANFTQGEDVFHAPYVANQGWYDITKTFNGKDDLLCGAATAGNMLHWWFDQNKDQIKRYLEEHPEKQKINFNGEQMFDVKEAIDTKNHQLDSKLFEYFKEKAFPNLSTKHLGVFPDHVIDMFINGYRLSLLNHGPTPVKEGSKDPRGGIFDAVFTRGDQSKLLTSRHDFKEKNLKEISDLIKKELTEGKALGLSHTYANVRINHVINLWGADFDSNGNLKAIYVTDSDSNASIGMKKYFVGVNSSGKVAISAKEIKEDNIGAQVLGLFTLSTGQDSWNQTN
Result: 731
